system.under.test: Cytochrome P450 2D6 (Homo sapiens)
assay.comment: Cytochrome panel assay with activity outcomes
assay.conditions: recombinant CYP, pro-luciferin dealkylation, luminescence, p450-cyp2d6; series mostly up to 57.1 µM
Hit rate of the full screen: of about 16,000 compounds, about 2,600 (16%) were called active. Not shown: some 20% with an inconclusive outcome. Calls come from the whole dose curve; as a rule, active = well fitted curve in the direction sought with a large enough effect; inconclusive = small, poorly fitted or top-dose-only effect, or effect the other way; inactive = no such curve, though single readings can be large or run the other way. A selection follows.
Outcome codes: True (active), False (inactive)

| molecule | system.under.test | class.name |
| --- | --- | --- |
| CC1CCC(C(C)C)C(OCC(O)CN2CCN(Cc3ccccc3)CC2)C1 (stereo not given) | Cytochrome P450 2D6 (Homo sapiens) | True |
| COc1ccc(N2C(=O)NC(NC(=O)c3ccncc3)(C(F)(F)F)C2=O)cc1 (stereo not given) | Cytochrome P450 2D6 (Homo sapiens) | False |
| CCOC(=O)CCCc1c[nH]c2ccccc12 | Cytochrome P450 2D6 (Homo sapiens) | True |
| FC(F)(F)c1ccccc1-c1nccc(N2CCNCC2)n1 | Cytochrome P450 2D6 (Homo sapiens) | False |
| O=C(c1ccccc1)c1ccc2nc(-c3ccc(NC(=O)c4ccccc4F)cc3)[nH]c2c1 | Cytochrome P450 2D6 (Homo sapiens) | False |
| CC(=O)N1CCc2cc(Br)cc(S(=O)(=O)N3CCN(C(=O)c4ccco4)CC3)c21 | Cytochrome P450 2D6 (Homo sapiens) | False |
| COc1ccc(N2CCN(Cc3nc4c(c(=O)n(C)c(=O)n4C)n3CC(C)=O)CC2)cc1 | Cytochrome P450 2D6 (Homo sapiens) | False |
| O=C(OCC#CCSc1nnc(-c2cccc3ccccc23)o1)c1ccco1 | Cytochrome P450 2D6 (Homo sapiens) | False |
| COc1ccc(OC)c(CNC(=O)CCNC(=O)Cn2ccc3ccccc3c2=O)c1 | Cytochrome P450 2D6 (Homo sapiens) | False |
| Cn1c(=O)c(-c2ccc(Cl)cc2)nc2cncnc21 | Cytochrome P450 2D6 (Homo sapiens) | False |
| Cc1ccccc1CN1CCN(CC(=O)NCCCN2CCN(c3ccc(F)cc3)CC2)C1=O | Cytochrome P450 2D6 (Homo sapiens) | True |
| CC1CC(OCC(O)CN2CCN(Cc3ccccc3)CC2)CC(C)(C)C1 (stereo not given) | Cytochrome P450 2D6 (Homo sapiens) | False |
| O=C(c1ccncc1)N1CCC2(CCCN(Cc3ccccc3)C2)CC1 | Cytochrome P450 2D6 (Homo sapiens) | False |
| COc1ccc(NC2=NC(=S)N(c3ccc(C)cc3)C23CCCCC3)cc1 | Cytochrome P450 2D6 (Homo sapiens) | False |
| Clc1ccccc1-c1nccc(-n2ccnc2)n1 | Cytochrome P450 2D6 (Homo sapiens) | True |
| COc1ccccc1-c1nnc(NC(C)=O)s1 | Cytochrome P450 2D6 (Homo sapiens) | False |
| CON1C(=O)C(=O)N(OC)C2CCCCC21 (stereo not given) | Cytochrome P450 2D6 (Homo sapiens) | False |
| CCC(=O)N1CCN(c2ccc(NC(=O)c3cccs3)cc2)CC1 | Cytochrome P450 2D6 (Homo sapiens) | False |
| O=c1c(-c2ccccc2)nc2cnc(N3CCOCC3)nc2n1Cc1cccs1 | Cytochrome P450 2D6 (Homo sapiens) | False |
| CNc1nc(C)cc(C)c1S(=O)(=O)c1ccc(C)cc1 | Cytochrome P450 2D6 (Homo sapiens) | False |
| CC(C)c1nc2ccccn2c1NC1CCCCC1 | Cytochrome P450 2D6 (Homo sapiens) | True |
| CCOC(=O)c1ccc(NC(=O)C2(c3ccc(OC)cc3)CCOCC2)cc1 | Cytochrome P450 2D6 (Homo sapiens) | False |
| C/C(=N\NC(=O)c1cccc(C)c1)c1cccc(NC(=O)c2ccco2)c1 | Cytochrome P450 2D6 (Homo sapiens) | False |
| CC1(C)CCC(C)(C)c2cc(C(=O)Nc3ccc(C(=O)O)cc3)ccc21 | Cytochrome P450 2D6 (Homo sapiens) | False |
| COc1ccccc1-c1nccc(-n2ccnc2)n1 | Cytochrome P450 2D6 (Homo sapiens) | True |
| C=CCOc1cccc(/C=N/NC(=O)C(=O)NCc2ccco2)c1 | Cytochrome P450 2D6 (Homo sapiens) | False |
| CC(=O)N(/N=C/c1cccc(C)c1)c1nc(-c2ccc(Br)cc2)cs1 | Cytochrome P450 2D6 (Homo sapiens) | False |
| Cc1nc(SCC(=O)c2ccc(Cl)s2)c2oc3ccccc3c2n1 | Cytochrome P450 2D6 (Homo sapiens) | False |
| COc1ccc(S(N)(=O)=O)cc1C(=O)NCCCN1CCN(c2ccc(C)cc2)CC1 | Cytochrome P450 2D6 (Homo sapiens) | False |
| COc1ccc(-n2c(=O)c(C)nc3cncnc32)cc1 | Cytochrome P450 2D6 (Homo sapiens) | False |
| Nc1nnc(CC(=O)N/N=C/c2cccc([N+](=O)[O-])c2)s1 | Cytochrome P450 2D6 (Homo sapiens) | False |
| CC(=O)NCCC(=O)Nc1sc2c(c1-c1nc3ccccc3[nH]1)CCCC2 | Cytochrome P450 2D6 (Homo sapiens) | False |
| COc1ccc(-n2c(=O)c(C)nc3cnc(N4CCNCC4)nc32)cc1 | Cytochrome P450 2D6 (Homo sapiens) | False |
| COc1cc(OC)c(C#N)c(S(=O)(=O)Cc2ccccc2)c1 | Cytochrome P450 2D6 (Homo sapiens) | False |
| C=CCCCCCCCCC(=O)Nc1c[nH]c(=O)[nH]c1=O | Cytochrome P450 2D6 (Homo sapiens) | False |
| O=C(CCNC(=O)Cn1ccc2ccccc2c1=O)NCCCN1CCN(c2ccc(F)cc2)CC1 | Cytochrome P450 2D6 (Homo sapiens) | True |
| Cc1ccccc1-c1nccc(-n2ccnc2)n1 | Cytochrome P450 2D6 (Homo sapiens) | True |
| Cc1ccc(C)c2sc(NC(=O)c3ccc(N4CCCCC4)c([N+](=O)[O-])c3)nc12 | Cytochrome P450 2D6 (Homo sapiens) | False |
| Cc1cc(C)n(-c2nc(Nc3ccccc3C)nc(-n3nc(C)cc3C)n2)n1 | Cytochrome P450 2D6 (Homo sapiens) | False |
| O=C(Cc1c[nH]c2ccccc12)OCC(=O)c1ccccc1 | Cytochrome P450 2D6 (Homo sapiens) | False |
| CCC(C)Nc1nc(OCC(F)(F)F)nc(OCC(F)(F)F)n1 (stereo not given) | Cytochrome P450 2D6 (Homo sapiens) | False |
| CCOC(=O)CSc1nnc(Cc2cc(=O)[nH]c(=O)[nH]2)n1-c1cccc(OC)c1 | Cytochrome P450 2D6 (Homo sapiens) | False |
| COc1cccc(CNC(=O)CCNC(=O)Cn2ccc3ccccc3c2=O)c1 | Cytochrome P450 2D6 (Homo sapiens) | False |
| Fc1cc2nc(-c3ccncc3)[nH]c2cc1F | Cytochrome P450 2D6 (Homo sapiens) | True |
| CC(=O)NC1C(OCCOc2ccc(Cl)cc2Cl)OC(COC(C)=O)C(OC(C)=O)C1OC(C)=O (stereo not given) | Cytochrome P450 2D6 (Homo sapiens) | False |

###

system.under.test: Cytochrome P450 2D6 (Homo sapiens)
assay.comment: Cytochrome panel assay with activity outcomes
assay.conditions: recombinant CYP, pro-luciferin dealkylation, luminescence, p450-cyp2d6; series mostly up to 57.1 µM
Out of some 16,000 compounds screened, about 2,600 (16%) were called active. About 20% were inconclusive and are not listed. Calls come from the whole dose curve; as a rule, active = well fitted curve in the direction sought with a large enough effect; inconclusive = small, poorly fitted or top-dose-only effect, or effect the other way; inactive = no such curve, though single readings can be large or run the other way. A selection follows.
Labels: yes (active), no (inactive)

| molecule | system.under.test | class.name |
| --- | --- | --- |
| Cc1ccc(/C=C2\SC(=S)N(CCCC(=O)Nc3ccccn3)C2=O)cc1 | Cytochrome P450 2D6 (Homo sapiens) | no |
| Cc1sc2nc(C3CC3)nc(SCC(=O)N3CC(=O)Nc4ccccc43)c2c1C | Cytochrome P450 2D6 (Homo sapiens) | no |
| CC(=O)O[C@]1(C(C)=O)CC[C@@H]2[C@@H]3C=C(C)C4=CC(=O)CC[C@@]4(C)[C@H]3CC[C@]21C | Cytochrome P450 2D6 (Homo sapiens) | no |
| CC(C/C=N/NC(=O)COc1cc(Cl)ccc1Cl)c1ccccc1 (stereo not given) | Cytochrome P450 2D6 (Homo sapiens) | yes |
| Cc1n[nH]c(=O)nc1NCc1ccccc1Cl | Cytochrome P450 2D6 (Homo sapiens) | no |
| Clc1ccccc1CNCC1CCC(CNCc2ccccc2Cl)CC1 (stereo not given) | Cytochrome P450 2D6 (Homo sapiens) | yes |
| CC(C)[C@H]1C(=O)C(C(N)=O)=C(O)[C@]2(O)C(=O)C3=C(O)c4c(O)ccc(N(C)C)c4C[C@H]3C[C@@H]12 | Cytochrome P450 2D6 (Homo sapiens) | no |
| O=C(COc1ccccc1C(=O)N/N=C\c1ccc(O)c(O)c1)N/N=C/c1ccc(O)c(O)c1 | Cytochrome P450 2D6 (Homo sapiens) | no |
| Cc1ccccc1N1CCN(C(=O)c2ccccc2NC(=O)/C=C\C(=O)O)CC1 | Cytochrome P450 2D6 (Homo sapiens) | no |
| CCN1CCCC1CNC(=O)C1c2cc(OC)c(OC)cc2C(=O)N(C)C1c1cccnc1 (stereo not given) | Cytochrome P450 2D6 (Homo sapiens) | no |
